# Assay Setup: 303.15 K; 101.33 kPa; Liquid; Vibrating tube method
In this section we review reported mass density values for a set of compounds.
Give the number; kg/m3 is assumed, so skip it.

Reference set (4 entries):
| Compound | mass density (kg/m3) |
| --- | --- |
| CC(=O)[O-].CCCCCCn1cc[n+](C)c1 [3-hexyl-1-methylimidazolium acetate] | 1013.5 |
| CCCCCCCC[P+](CC)(CC)CC.O=[N+]([O-])c1cn[n-]c1 [triethyloctylphosphonium 4-nitropyrazolide] | 1027.9 |
| CCCCCCCC[P+](CC)(CC)CC.Cc1ncc([N+](=O)[O-])[n-]1 [triethyloctylphosphonium 2-methyl-5-nitroimidazolide] | 1025.6 |
| CCCCCCCC[P+](CC)(CC)CC.O=[N+]([O-])c1c[n-]cn1 [triethyloctylphosphonium 4-nitroimidazolide] | 1025.8 |

Shift focus to the following entry.
Lookup: Which mass density is listed for CCCCCCCCCC[P+](CC)(CC)CC.O=[N+]([O-])c1cn[n-]c1 [decyltriethylphosphonium 4-nitropyrazolide] ?
Found: 1007.9
